Measured TGI by item
# Test system: A549 NSCLC
# PROCEDURE_SUMMARY: NCI tumour cell line growth inhibition, 48 h
REPORTED_ENDPOINT: TGI

MOLECULE: O=c1[nH]nc(-c2ccccc2)n1/N=C/c1ccccc1Cl
REPORTED_ENDPOINT: TGI
TEST_VALUE: > 100 µM
--
MOLECULE: COc1cc2c(cc1OC)CC1c3cc(OC)c(OC)cc3CCN1CC2 (stereo unspecified)
REPORTED_ENDPOINT: TGI
TEST_VALUE: > 100 µM
--
MOLECULE: COc1cc2c(cc1OC)C(=O)C1(C2)[C@H](c2ccccc2)C2C(=O)c3cc(OC)c(OC)cc3C2[C@H]1c1ccccc1 (stereo partly specified)
REPORTED_ENDPOINT: TGI
TEST_VALUE: > 100 µM
--
MOLECULE: C=C1C(=O)OC2C3C(=C)[C@@H](OC(C)=O)CC3C(C)=CC(OC(=O)C(C)(OC(C)=O)C(C)OC(C)=O)[C@@H]12 (stereo partly specified)
REPORTED_ENDPOINT: TGI
TEST_VALUE: 70.4 µM
--
MOLECULE: CSc1nc2c(c(N3CCOCC3)n1)C(O)n1c(nc3ccccc31)S2 (stereo unspecified)
REPORTED_ENDPOINT: TGI
TEST_VALUE: > 100 µM
--
MOLECULE: CN(CC(=O)Nc1nc2ccccc2[nH]1)S(=O)(=O)c1ccc(Cl)cc1
REPORTED_ENDPOINT: TGI
TEST_VALUE: > 100 µM
--
MOLECULE: c1ccc(C(=NCCC2CNc3ccccc32)c2ccccc2)cc1 (stereo unspecified)
REPORTED_ENDPOINT: TGI
TEST_VALUE: > 100 µM
--
MOLECULE: CCCCCCCCCCCCCCCCOP(=O)(O)OCC(NC(C)=O)C(=O)O (stereo unspecified)
REPORTED_ENDPOINT: TGI
TEST_VALUE: > 100 µM
--
MOLECULE: COc1cc2c(cc1O)C1(Cc3ccc4c(c3C1=O)OCO4)N(C)CC2 (stereo unspecified)
REPORTED_ENDPOINT: TGI
TEST_VALUE: > 100 µM
--
MOLECULE: C#Cc1cc(Br)c(OC(=O)C(C)(C)C)c(-c2cc(C#C)cc(Br)c2OC(=O)C(C)(C)C)c1
REPORTED_ENDPOINT: TGI
TEST_VALUE: > 100 µM
--
MOLECULE: Cc1ccc2c(ccc(/C=C\c3cc(C)c4cccnc4c3O)[n+]2C)c1
REPORTED_ENDPOINT: TGI
TEST_VALUE: 40.9 µM
--
MOLECULE: O=C1OC(=O)C2CCCC3CCCC1C32 (stereo unspecified)
REPORTED_ENDPOINT: TGI
TEST_VALUE: > 100 µM
--
MOLECULE: CN(C)c1nncc2n[nH]nc12
REPORTED_ENDPOINT: TGI
TEST_VALUE: > 100 µM
--
MOLECULE: O=C(NC(Cc1cnc[nH]1)C(=O)N1CCCC1)C1CCCC1 (stereo unspecified)
REPORTED_ENDPOINT: TGI
TEST_VALUE: > 100 µM
--
MOLECULE: COC(=O)C1Cc2ccc3c(c2C1=O)CCCC3 (stereo unspecified)
REPORTED_ENDPOINT: TGI
TEST_VALUE: > 100 µM
--
MOLECULE: O=C(c1ccccc1)C1C(c2ccccc2)N1S(=O)(=O)c1ccccc1 (stereo unspecified)
REPORTED_ENDPOINT: TGI
TEST_VALUE: > 100 µM
--
MOLECULE: COc1cc(C(=O)CC2OC(=O)C(Cl)=C2Cl)ccc1Cl (stereo unspecified)
REPORTED_ENDPOINT: TGI
TEST_VALUE: > 100 µM
--
MOLECULE: COc1nc2c(c(=O)n1C)N=C(c1ccccc1)[C@H](C(CC(=O)c1ccccc1)c1ccccc1)C(c1ccccc1)N2 (stereo partly specified)
REPORTED_ENDPOINT: TGI
TEST_VALUE: > 100 µM
--
MOLECULE: COc1ccc(NC(C)=O)c(C(O)CCNC(C)=O)c1 (stereo unspecified)
REPORTED_ENDPOINT: TGI
TEST_VALUE: > 100 µM
--
MOLECULE: O=C1C=CC(=O)N1c1cccc(N2C(=O)C=CC2=O)c1
REPORTED_ENDPOINT: TGI
TEST_VALUE: 45.4 µM
--
MOLECULE: C=C1CC2CC(O)CC(C1)C2 (stereo unspecified)
REPORTED_ENDPOINT: TGI
TEST_VALUE: > 100 µM
--
MOLECULE: Cc1nc2[nH]ncn2c(=O)c1CCCl
REPORTED_ENDPOINT: TGI
TEST_VALUE: > 10 µM
--
MOLECULE: COC(=O)C(COC(=O)/C=C/c1ccc(OC(C)=O)c(OC(C)=O)c1)NC(=O)/C=C/c1ccc(OC(C)=O)c(OC(C)=O)c1 (stereo unspecified)
REPORTED_ENDPOINT: TGI
TEST_VALUE: > 100 µM
--
MOLECULE: N#Cc1cc(S(=O)(=O)Nc2nnc(-c3ccccc3)c(-c3ccccc3)n2)c(SCc2ccccc2)cc1Cl
REPORTED_ENDPOINT: TGI
TEST_VALUE: 40.7 µM
--
MOLECULE: Oc1cc(N2CCCC2)ccc1/C=N/N1C(=S)N(c2ccccc2)C(=Nc2ccccc2)C1=Nc1ccccc1
REPORTED_ENDPOINT: TGI
TEST_VALUE: > 100 µM
--
MOLECULE: N#Cc1c(N)nc(N2CCOCC2)c(C#N)c1-c1ccccn1
REPORTED_ENDPOINT: TGI
TEST_VALUE: > 100 µM

Taken from PubChem BioAssay (NCI).
